System: Acinetobacter baumannii
Assay Remarks: MIC, CLSI broth microdilution, Acinetobacter baumannii panel
Format: cell-based
Measurement Conditions: Acinetobacter baumannii, A. baumannii clinical strain 19 (resistant clinical isolate); read-out: MIC
Measured Parameter: MIC

In the examples that follow, each entry is paired with its recorded MIC.
stdin: Reported MIC for Acinetobacter baumannii, given `NCC[C@H](O)C(=O)N[C@@H]1C[C@H](N)[C@@H](O[C@H]2O[C@H](CNCCO)[C@@H](O)C[C@H]2N)[C@H](O[C@@H]2O[C@H](CO)[C@@H](O[C@H]3O[C@@H](CN)[C@@H](O)[C@H](O)[C@H]3N)[C@H]2O)[C@H]1O` ?
stdout: 1 to 8 µg/mL

stdin: # repeat for `NCC[C@H](O)C(=O)N[C@@H]1C[C@H](N)[C@@H](O[C@H]2O[C@H](CN)[C@@H](O)[C@H](O)[C@H]2O)[C@H](O)[C@H]1O[C@H]1O[C@H](CO)[C@@H](O)[C@H](N)[C@H]1O`
stdout: 1 to 8 µg/mL

New cases:
stdin: Reported MIC for Acinetobacter baumannii, given `NC[C@@H]1O[C@H](O[C@H]2[C@@H](O)[C@H](O[C@@H]3[C@@H](O)[C@H](NC(=O)[C@@H](O)CN)C[C@H](N)[C@H]3O[C@H]3O[C@H](CNCCO)[C@@H](O)C[C@H]3N)O[C@@H]2CO)[C@H](N)[C@@H](O)[C@@H]1O` ?
stdout: 1 to 8 µg/mL

stdin: # repeat for `NC[C@H]1O[C@H](O[C@H]2[C@H](O)[C@@H](O[C@H]3O[C@H](CO)[C@@H](O)[C@H](N)[C@H]3O)[C@H](N)C[C@@H]2N)[C@H](N)C[C@@H]1O`
stdout: ≤ 1 µg/mL
